# protocol_text: chemical genetic growth profiling, strain panel (AID 1159580);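 note: tested at 20 µM; growth read once vehicle control cultures reached saturation at 30 °C; 1 = growth at the plate median or of vehicle wells; lower values mean less growth of the strain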
# conditions_used: S. cerevisiae deletion strains, growth OD, locus YMR129W, active compounds read low
The whole screen tested about 5,500 compounds, of which about 2,000 (36%) were called active. Roughly 18% stayed inconclusive and do not appear here. The list shows a part of the results.
attribute_measured: normalized growth
Answers are plain numbers.

Worked cases, normalized growth given:
CCCCOc1ccc(OCCCN2CCOCC2)cc1 | 1
Cc1cc(=O)c2c(O)c(C)c(O)cc2o1 | 1.02
Cc1cc(=O)c2c(O)cc(O)c(C)c2o1 | 0.958
CC(=O)CC(=O)CCC(=O)O | 1.02
C[C@@H]1O[C@@H](O[C@H]2[C@@H](Oc3cc(O)c4c(c3)O[C@H](c3ccc(O)cc3)CC4=O)O[C@H](CO)[C@@H](O)[C@@H]2O)[C@H](O)[C@H](O)[C@H]1O | 0.974

Batch lookup, normalized growth per entry.
1. O=[N+]([O-])O[C@H]1CO[C@H]2[C@@H]1OC[C@H]2O[N+](=O)[O-]
2. OC(CCN1CCCCC1)(c1ccccc1)c1ccccc1
3. CCc1ccc(CCOc2ccc(CC3SC(=O)NC3=O)cc2)nc1 (stereo unspecified)
4. CCCCCCCCCCCCCCCCOP(=O)([O-])OCC[N+](C)(C)C
5. CCCCOc1ccc(C(=O)CCN2CCCCC2)cc1
6. CC(C)(N=NC(C)(C)C(=N)N)C(=N)N

1: 0.988; 2: 0.99; 3: 1; 4: 0.0586; 5: 0.99; 6: 1.01

Batch request: normalized growth per item, same order as input.
1. CCC1(c2ccccc2)C(=O)NCNC1=O
2. COc1cccc2c1CCC1CC(=O)CCC21C (stereo unspecified)

[0.99, 0.991]

* * *

# protocol_text: chemical genetic growth profiling, strain panel (AID 1159580);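 note: tested at 20 µM; growth read once vehicle control cultures reached saturation at 30 °C; 1 = growth at the plate median or of vehicle wells; lower values mean less growth of the strain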
# conditions_used: S. cerevisiae deletion strains, growth OD, locus YEL037C, strain rad23, active compounds read low
About 2,000 (36%) of roughly 5,500 compounds were called active. Another 18% or so got no clear call; they are omitted. This is one part of the list.
attribute_measured: normalized growth
Give bare numbers.

CN=C(NC#N)NCCSCc1nc(N=C(N)N)cs1 | 0.937
CO[C@H]1C[C@H](O[C@H]2[C@H](C)[C@@H](OC3O[C@H](C)C[C@H](N(C)C)[C@H]3O)[C@@H](C)C[C@]3(CO3)C(=O)[C@H](C)[C@@H](O)[C@@H](C)[C@@H](C)OC(=O)[C@@H]2C)O[C@@H](C)[C@@H]1O (stereo partly specified) | 0.994
CC(C)[N+](C)(CCOC(=O)C1c2ccccc2Oc2ccccc21)C(C)C | 0.995
NCC1CCCCC1CC(=O)O (stereo unspecified) | 1.02
NC(=O)N1c2ccccc2CC(=O)c2ccccc21 | 0.984

Read the next record carefully.
Give the measured normalized growth for Cc1ccc(O)cc1
1.01

* * *

# protocol_text: chemical genetic growth profiling, strain panel (AID 1159580);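 note: tested at 20 µM; growth read once vehicle control cultures reached saturation at 30 °C; 1 = growth at the plate median or of vehicle wells; lower values mean less growth of the strain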
# conditions_used: S. cerevisiae deletion strains, growth OD, locus YER016W, strain bim1, active compounds read low
Among all 5,500 compounds or so, about 2,000 (36%) were called active. About 18% were inconclusive and are not listed. This is one part of the list.
For each entry below, report its normalized growth value.

Worked cases, normalized growth given:
C[C@@H](N)CO | 0.996 (inactive)
CCCCOc1ccc(OCCCN2CCOCC2)cc1 | 0.983 (inactive)
c1ccc(CN(CC2=NCCN2)c2ccccc2)cc1 | 1.01 (inactive)

Here are 8 molecules. What values of normalized growth were reported for them?
1. NC(N)=Nc1nc(CSCCC(N)=NS(N)(=O)=O)cs1
2. Cc1ccc(O)cc1
3. O=C(O)c1ccccc1OP(=O)(O)O
4. CC(=O)O[C@]1(C(C)=O)CCC2C3C[C@H](C)C4=CC(=O)CC[C@]4(C)C3CC[C@@]21C (some centres not stated)
5. COc1ccc(-c2coc3c(OC)c(OC)cc(O)c3c2=O)cc1
6. CN1C2CC3C[C@H]1C(O3)C2O (some centres not stated)
7. OC(CCN1CCCCC1)(c1ccccc1)c1ccccc1
8. NC/C=C/C(=O)O

1: 1.01 (inactive); 2: 1.01 (inactive); 3: 1 (inactive); 4: 0.975 (inactive); 5: 1.01 (inactive); 6: 1.01 (inactive); 7: 0.997 (inactive); 8: 1.02 (inactive)

Provide the reported normalized growth of each entry below, same order.
1. COC(=O)[C@@H]1C(O)CC[C@H]2CN3CCc4c([nH]c5ccccc45)[C@@H]3C[C@@H]21 (some centres not stated)
2. CC1(C)C2CC[C@]3(C)C(C(=O)C=C4[C@@H]5C[C@@](C)(C(=O)O)CC[C@]5(C)CC[C@]43C)[C@@]2(C)CC[C@@H]1O (some centres not stated)
3. CC(C)CC1C(=O)N2CCC[C@H]2C2(O)O[C@](NC(=O)C3C=C4c5cccc6[nH]c(Br)c(c56)C[C@H]4N(C)C3)(C(C)C)C(=O)N12 (some centres not stated)
4. N=c1nc(N2CCCCC2)cc(N)n1O

["1.02 (inactive)", "1.01 (inactive)", "0.982 (inactive)", "0.998 (inactive)"]

For every item in the list below, what is its measured normalized growth?
1. CC(=O)O[C@H]1C(=O)[C@@]2(C)C([C@H](OC(=O)c3ccccc3)[C@]3(O)C[C@H](OC(=O)[C@H](O)[C@@H](NC(=O)c4ccccc4)c4ccccc4)C(C)=C1C3(C)C)[C@]1(OC(C)=O)CO[C@@H]1C[C@@H]2O (some centres not stated)
2. C=C1CC[C@H](O)C/C1=C/C=C1\CCC[C@]2(C)C([C@H](C)/C=C/[C@H](C)C(C)C)CC[C@@H]12 (some centres not stated)

1.01 (inactive)
1.02 (inactive)
